molecular target: Calmodulin-1 (Homo sapiens) (UniProt P0DP23); assay: small molecules binding Ca-loaded calmodulin-1 – biochemical, small-molecule microarray, Cy5-labelled CALM1, plus calcium, artefact control for SMM control-protein annotation, profiling panel (AID 1112); conditions: Cy5-CALM1 binding fluorescence, higher = more signal;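 also: score merges spot fluorescence with signal to noise from triplicate slides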
// label = Condition met if composite z-score is not less than 0.2, otherwise Condition not met

- OCCCC1=CC(c2ccc(CN3CCCC3)cc2)N(Cc2cccc(OC(F)(F)F)c2)CC1 (configuration not stated): Condition met
- CC(C)[Si](C#CCCc1ccccc1)(O[C@H](c1ccccc1)c1cn(Cc2ccccc2)nn1)C(C)C: Condition not met
- C=CCC(OC(C)=O)[C@@H]1[C@@H](N(Cc2ccc(-c3cccc(C(F)(F)F)c3)o2)C(=O)Cc2ccc(F)cc2)c2cc(OCCCO)ccc2N1C(=O)Cc1ccc2ccccc2c1 (some centres not stated): Condition met
- COc1ccc([Si](C)(C)[C@H]2[C@H](CCO)O[C@@]3(C(=O)N(Cc4ccc(NC(=O)[C@H](C)O)cc4)c4ccccc43)[C@@H]2C)cc1: Condition not met
- O=C(NC1CC1)[C@@H]1c2ccccc2C(=O)N(Cc2ccc(OC(F)(F)F)cc2)[C@H]1c1ccc(CO)cc1: Condition met
- CC(C)NC(=O)[C@@H]1c2ccccc2C(=O)N(Cc2ccc(OC(F)(F)F)cc2)[C@H]1c1ccc(CO)cc1: Condition not met
- COC(=O)[C@@]1(Cc2ccc(F)cc2)[C@H]2c3cc(C(=O)N4CCCC4)n(Cc4ccccn4)c3C[C@H]2CN1C(=O)c1ccccc1: Condition met

----------
tested on: Neuregulin-1 EGF-like domain; test: small molecules binding NRG1 EGF domain – biochemical, small-molecule microarray, 635 nm fluorescence, primary screen (AID 1081); settings: higher = more signal;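 also: binding of the protein to compounds printed on small-molecule microarray slides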
composite z-score listing for selected compounds.
propertyMeasured: composite z-score

• C=CCN1C(=O)[C@]2(O[C@H](CCn3cc([C@H](O)c4ccccc4)nn3)[C@@H]([Si](C)(C)c3ccc(OC)cc3)[C@@H]2C)c2cc(NC(=O)c3ccc(OC)cc3)ccc21 = 0.519
• COc1ccc(C(=O)Nc2cccc(CN3C(=O)[C@]4(O[C@H](CC(=O)N5Cc6ccccc6C[C@H]5CO)[C@@H]([Si](C)(C)c5ccc(OC)cc5)[C@@H]4C)c4ccccc43)c2)cc1 = 0.762
• O=C(NCC(O)CO)[C@@]1(CCS(=O)(=O)c2ccccc2)N=C(c2ccc(OCCCO)cc2)O[C@H]1c1ccccc1 (stereo partly drawn) = 1.33

----------
assay: compounds binding Alexa647 anti-His antibody – biochemical, small-molecule microarray, 635 nm fluorescence, artefact control for SMM control protein annotation, primary screen (AID 1128); settings: higher = more signal;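 also: score merges feature fluorescence with signal-to-noise for each printed compound spot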
propertyMeasured: composite z-score

• C=CCN1C(=O)[C@@]2(O[C@@H](CCn3cc([C@H](O)c4ccccc4)nn3)[C@H]([Si](C)(C)c3ccc(OC)cc3)[C@H]2C)c2cc(N3C(=O)c4cccc5cccc3c45)ccc21 = 0.338
• CC(C)(C)N1CC=CC23O[C@@H]4/C=C\CCCOC(=O)C4[C@H]2C(=O)N(CCCCCO)[C@@H]3C1=O (some centres not stated) = -1.23
• C=C(COC)C(=O)CC[C@@H](OC(=O)c1ccccc1-c1ccccc1C(=O)O)c1ccc(OCCO)cc1 = -0.0978
• C=CCOC(=O)[C@H]1[C@@H]2C(=O)O[C@@H](c3ccccc3)[C@@H](c3ccccc3)N2[C@@H](c2ccc(OCCOC(=O)[C@@H]3C[C@@H]4C(=O)N[C@@H](CCCC[N+](C)(C)C)C(=O)N4[C@@H]3c3ccc(O)cc3)cc2)[C@]12C(=O)Nc1ccc(I)cc12 = 1.08
• CN(C)CCCNC(=O)[C@@]1(C)c2ccccc2C(=O)N(Cc2ccc(OC(F)(F)F)cc2)[C@H]1c1ccc(CO)cc1 = 0.117
• NC(=O)NCC#Cc1ccc2c(c1)[C@]1(C(=O)N2)[C@H](c2ccc(OCCO)cc2)N2[C@H](c3ccccc3)[C@H](c3ccccc3)OC(=O)[C@H]2[C@@H]1C(=O)NC[C@H](O)c1ccccc1 = -0.454
• COCCOC(=O)N1C(=O)[C@@]2(c3cc(C#CC4(O)CCCCCC4)ccc31)[C@H](c1ccc(O)cc1)N1[C@H](c3ccccc3)[C@H](c3ccccc3)OC(=O)[C@H]1[C@@H]2C(=O)N1CCCCCCC1 = 1.01
• [N-]=[N+]=NCc1ccccc1[C@@H]1OC(c2ccc(OCCCO)cc2)=N[C@]1(Cc1ccccc1N=[N+]=[N-])C(=O)O = 3.38
• COc1ccc([Si](C)(C)[C@H]2[C@H](CCO)O[C@@]3(C(=O)N(Cc4ccc(NC(=O)[C@H](C)O)cc4)c4ccccc43)[C@@H]2C)cc1 = 1.4
• CC1CC/C=C\[C@H]2OC34C=CCN(Cn5nnc6ccccc65)C(=O)[C@H]3N(CCCCCCO)C(=O)[C@@H]4C2C(=O)O1 (some centres not stated) = 0.965
• CN(C)CCCC[C@@H]1NC(=O)[C@@H]2C[C@H](C(=O)NCCCCCCNC(=O)CS)[C@H](c3ccc(O)cc3)N2C1=O = 2.26
• CCCC[C@H]1OB(O)C[C@H]2C1=C(COc1ccccc1)C[C@H]1C(=O)C=CC(=O)[C@H]12 = 0.219
• C=C(/C(=C/C[C@@H](OC(C)=O)c1cccc(OCCO)c1)c1cnc2ccccc2c1)C(C)C = 0.607
• CN(C)CCCCNC(=O)[C@H]1C[C@H]2C(=O)NCC(=O)N2[C@H]1c1ccc(O)cc1 = 0.489
• COc1ccc(NN2C(C(O)c3ccc(I)cc3)C=CC3C(=O)N(C4CCCCC4)C(=O)C32)cc1 (configuration not stated) = 0.698
• N#Cc1ccc(C(O)C2C=CC3C(=O)NC(=O)C3N2Nc2ccc(Cl)cc2Cl)cc1 (configuration not stated) = 0.299
• CCOC(=O)C[C@H]1[C@H](OC(=O)c2ccccc2-c2ccccc2)[C@@H](NC(=O)C2CCCCC2)c2cc(OCCCO)ccc2N1C(=O)c1ccc2ccccc2n1 = 0.316
• C=CCOC(=O)[C@@H]1[C@H]2C(=O)O[C@H](c3ccccc3)[C@H](c3ccccc3)N2[C@H](c2ccc(OCCOC(=O)[C@H]3C[C@H]4C(=O)N[C@@H](CCCCN(C)C)C(=O)N4[C@H]3c3ccc(O)cc3)cc2)[C@@]12C(=O)Nc1ccc(I)cc12 = 1.2
• CCCC#C[Si](O[C@H](CC)c1cn(Cc2ccccc2)nn1)(C(C)C)C(C)C = 0.738
• CC1CC/C=C\[C@H]2OC34C=CCN(Cc5ccccc5)C(=O)[C@H]3N(CCCCCCO)C(=O)[C@@H]4C2C(=O)O1 (some centres not stated) = 0.607
• CCCC[C@H]1C[C@@H]1[C@@H]1N(C(C)=O)[C@H](c2cccc(OC)c2)CC12CC2 = -0.101
• O=C1C=C(c2ccccc2)C(=O)C2=C1CC([C@H]1Oc3ccccc3S(=O)(=O)N3CCC[C@@H]13)=CC2 = -0.105
• COC(=O)C[C@H]1O[C@@]2(C[C@@H]1[Si](C)(C)C)C(=O)N(C)c1ccccc12 = 0.324
• O=C1[C@H]2C=C(I)[C@H](C[C@@H]2OCCCCCCO)[C@@]12CO2 = -0.624
• COCCOC(=O)N1C(=O)[C@@]2(c3cc(C#CCC(C(=O)OC)C(=O)OC)ccc31)[C@H](C(=O)Nc1nc3ccccc3s1)[C@H]1C(=O)O[C@H](c3ccccc3)[C@H](c3ccccc3)N1[C@@H]2c1ccc(O)cc1 = 0.777
• C=CCC(OC(C)=O)[C@@H]1[C@@H](N(Cc2cc3ccccc3o2)C(=O)c2cccc3ccccc23)c2cc(OCCCO)ccc2N1C(=O)c1ccc2ccccc2n1 (some centres not stated) = -0.164
• O=C1C2C=CC(C(O)c3ccc([N+](=O)[O-])cc3)N(Nc3ccccc3F)C2C(=O)N1c1ccccc1 (configuration not stated) = 1.68

----------
assay: probe aInhba binding on compound microarray – biochemical, small-molecule microarray, 635/667 nm fluorescence, primary screen (AID 1148); settings: higher = more signal;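 also: score merges 667nm spot fluorescence with signal-to-noise for antibody binding to printed compounds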
// label = rule met if composite z-score is not less than 0.1, otherwise rule not met

- C=C(CCCC)C(=O)CC[C@@H](OC(=O)c1ccccc1-c1ccccc1C(=O)O)c1ccccc1OCCO: rule not met
- C=C(CCCC)C(=O)CC[C@H](OC(=O)c1ccccc1-c1ccccc1C(=O)O)c1ccc(OCCO)cc1: rule not met
- COc1ccc(C#Cc2ccc3c(c2)[C@]2(C(=O)N3)[C@H](C(=O)O)[C@H]3C(=O)O[C@H](c4ccccc4)[C@H](c4ccccc4)N3[C@@H]2c2ccccc2OCCO)cc1: rule not met
- CCOC(=O)C[C@H]1[C@H](OC(=O)Cc2ccc3c(c2)OCO3)[C@@H](NC(=O)Cc2ccc(OC)cc2)c2cc(OCCCO)ccc2N1C(=O)Cc1ccc(OC)cc1: rule not met
- C[C@@H]1ON(c2ccccc2)[C@H](c2ccccc2)[C@H]1C(=O)O: rule met
- COC(=O)[C@@]1(Cc2ccccc2)[C@H]2c3cc(C(=O)N4CCCC4)n(Cc4ccc(OC)c(OC)c4)c3C[C@H]2CN1C(=O)c1ccccc1: rule met
